- TESTED TARGET: glucosylceramide synthase (GCS) (Canis lupus familiaris, UniProt A0A8I3MXG6)
- Sequence (A0A8I3MXG6 1-394): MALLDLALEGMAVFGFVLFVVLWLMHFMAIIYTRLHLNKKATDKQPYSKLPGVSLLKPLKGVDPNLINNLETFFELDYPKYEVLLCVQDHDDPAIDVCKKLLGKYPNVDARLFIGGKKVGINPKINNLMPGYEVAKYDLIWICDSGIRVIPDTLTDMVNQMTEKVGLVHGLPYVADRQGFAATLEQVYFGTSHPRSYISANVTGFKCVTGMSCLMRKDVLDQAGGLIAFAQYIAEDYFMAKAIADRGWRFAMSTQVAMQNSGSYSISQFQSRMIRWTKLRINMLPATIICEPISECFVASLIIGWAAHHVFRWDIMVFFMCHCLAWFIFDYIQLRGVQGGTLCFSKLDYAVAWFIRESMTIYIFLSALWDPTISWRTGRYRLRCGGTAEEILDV
- TEST NAME: GCS Enzymatic Assay (MDCK lysates)
- CONDITION: MDCK cell lysate, C6-NBD-Ceramide, 37° C. for 1 hour, LC/MS; read-out: Assay 1 (Enzyme Assay; MDCK lysates) IC50
READOUT LABEL: IC50

Cn1ncc2c3c(ccc21)C(C(=O)N[C@H](CN1CCCC1)[C@H](O)c1ccc(OC2CC2)c(Cl)c1)=NOC3
< 10 nM

// lookup IC50 for O=C(N[C@H](CN1CCCC1)[C@H](O)c1ccc(OC2CC2)c(Cl)c1)C1OCCc2c1sc1cc(Cl)ccc21 (some centres unmarked)
100 to 1000 nM

Lookup O=C(N[C@H](CN1CCCC1)[C@H](O)c1ccc(OC2CC2)cc1)C1=NOCc2c1ccc1ccccc21
< 10 nM

Lookup O=C(N[C@H](CN1CCCC1)[C@H](O)c1ccc(OC2CC2)c(Cl)c1)C1=NOCc2c1ccc1cc(Cl)sc21
< 10 nM
